This collection of values is drawn from patent US20260103471A1.

The reader will find reported pEC50 values listed item by item below.
# Test system: HSV-1
# assay-info: HSV-1 Antiviral Assay (Vero cells, cell viability)
# Assay type: cell-based
# stated-conditions: Human alphaherpesvirus 1, 96 h; Vero cells, 80 TCID50 HSV-1, 4 days, cell viability; read-out: HSV-1 EC50
pEC50: −log10 of the molar value.

>>> result("Cc1nc(N2CCCN(C(C)c3cccc(-c4ccccc4F)c3)C2=O)sc1S(N)(=O)=O (centres unmarked)")
"5.30 to 6.00"
>>> result("Cc1nc(N2CCCN(c3ccc(-c4cccc5cnccc45)cc3)C2=O)sc1S(N)(=O)=O")
"> 7.00"
>>> result("Cc1nc(N2CCCN(c3ccc(-c4cccc5cnn(C)c45)cc3)C2=O)sc1S(N)(=O)=O")
"> 7.00"
>>> result("Cc1nc(N2CCCN(c3ccc(-c4cc(F)ccc4F)cc3)C2=O)sc1S(=O)(=O)C1CC1")
"6.00 to 7.00"
>>> result("Cc1nc(N2CCCN(c3ccc(-c4cccc5cc(C#N)sc45)cc3)C2=O)sc1S(N)(=O)=O")
"> 7.00"

Which pEC50 is reported for this compound? Cc1nc(N2CCCN(c3ccc(-c4nnco4)cc3)C2=O)sc1S(N)(=O)=O
5.30 to 6.00

Same question, Cc1nc(N2CCCN(c3ccc(-c4cc(F)cc5nsnc45)cc3)C2=O)sc1S(N)(=O)=O this time
> 7.00

Another compound: Cc1nc(N2CCCN(c3ccc(-c4cccc5c4CC(=O)N5)cc3)C2=O)sc1S(N)(=O)=O
5.30 to 6.00

Then Cc1nc(N2CCCN(c3ccc(-c4nsc5ccccc45)cc3)C2=O)sc1S(N)(=O)=O ?
> 7.00

Please give the result for Cc1nc(N2CCCCN(c3ccc(-c4ccccn4)cc3)C2=O)sc1S(N)(=O)=O too.
> 7.00

Also Cc1nc(N2CCCN(c3ccc(-c4cccc5ncsc45)cc3)C2=O)sc1S(N)(=O)=O ?
> 7.00

Okay, and Cc1nc(N2C[C@H](C)CN(c3ccc(-c4ccccc4F)cc3)C2=O)sc1S(N)(=O)=O ?
> 7.00

---

# Test system: HSV-1
# assay-info: HSV-1 Antiviral Assay (Vero cells, cell viability)
# Type: cell-based
# stated-conditions: Human alphaherpesvirus 1, 96 h; Vero cells, 80 TCID50 HSV-1, 4 days, cell viability; read-out: HSV-1 EC50
pEC50: −log10 of the molar value.
Entries and their pEC50 values follow.

Some solved cases for reference:
>>> result("Cc1nc(N2CCCN(c3ccc(-c4n[nH]c5ccccc45)cc3)C2=O)sc1S(N)(=O)=O")
"6.00 to 7.00"
>>> result("Cc1nc(N2CCCN(c3ccc(-c4cc(Cl)cc5ncsc45)cc3)C2=O)sc1S(N)(=O)=O")
"> 7.00"
>>> result("Cc1nc(N2CCCN(c3ccc(-c4cc(F)ccc4F)cc3)C2=O)sc1S(=O)(=O)N1CCOCC1")
"6.00 to 7.00"
>>> result("Cc1nc(N2CCCN(c3ccc(-c4cc(F)cc5nonc45)cc3)C2=O)sc1S(N)(=O)=O")
"> 7.00"
>>> result("Cc1nc(N2CCCN(c3ccc(-c4cc(F)ccc4F)cc3)C2=O)sc1S(=O)(=O)N1CCNCC1")
"6.00 to 7.00"

Form field: pEC50 recorded for NS(=O)(=O)c1sc(N2CCCN(c3ccc(-c4cc(F)ccc4F)cc3)C2=O)nc1C(F)(F)F with HSV-1 (enter value)
> 7.00

Can you handle Cc1nc(N2CCCN(c3ccc(-c4cc(F)cc5c4cc(C#N)n5C)cc3)C2=O)sc1S(N)(=O)=O next?
> 7.00

Then this compound: Cc1nc(N2CCCN(c3ccc(-c4ccccc4F)cc3)C2=O)sc1[S+](C)[O-] (stereo not shown)
6.00 to 7.00

Next: CNS(=O)(=O)c1sc(N2CCCN(c3ccc(-c4ccccn4)cc3)C2=O)nc1C
> 7.00

Do the same for Cc1nc(N2CC3(CC3)CN(c3ccc(-c4cc(F)ccc4F)cc3)C2=O)sc1[S@](C)(=N)=O (single isomer, unassigned) please
> 7.00
